measuredOn: APP (amyloid precursor protein) (Homo sapiens)
Sequence (P05067 230-624 isoform P05067-4): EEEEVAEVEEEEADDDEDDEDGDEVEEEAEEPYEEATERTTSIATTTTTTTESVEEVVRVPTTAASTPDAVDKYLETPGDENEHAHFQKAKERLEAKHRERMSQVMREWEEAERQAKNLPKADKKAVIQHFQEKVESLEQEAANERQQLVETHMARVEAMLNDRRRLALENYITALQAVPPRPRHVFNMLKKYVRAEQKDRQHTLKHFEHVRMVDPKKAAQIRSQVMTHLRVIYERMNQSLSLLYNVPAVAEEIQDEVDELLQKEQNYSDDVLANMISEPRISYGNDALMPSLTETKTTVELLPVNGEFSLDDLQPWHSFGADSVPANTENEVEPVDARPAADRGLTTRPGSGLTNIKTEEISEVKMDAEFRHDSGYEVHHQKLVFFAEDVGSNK
quantityMeasured: Kd

| structure | result |
| --- | --- |
| CN1[C@@H]2CC[C@H]1C[C@@H](OC(=O)c1c[nH]c3ccccc13)C2 | 900 nM |
